Below, each entry is listed with its recorded Activity Activation %.
Molecular target: human MCH receptor (Homo sapiens)
Sequence (Q99705 whole entry): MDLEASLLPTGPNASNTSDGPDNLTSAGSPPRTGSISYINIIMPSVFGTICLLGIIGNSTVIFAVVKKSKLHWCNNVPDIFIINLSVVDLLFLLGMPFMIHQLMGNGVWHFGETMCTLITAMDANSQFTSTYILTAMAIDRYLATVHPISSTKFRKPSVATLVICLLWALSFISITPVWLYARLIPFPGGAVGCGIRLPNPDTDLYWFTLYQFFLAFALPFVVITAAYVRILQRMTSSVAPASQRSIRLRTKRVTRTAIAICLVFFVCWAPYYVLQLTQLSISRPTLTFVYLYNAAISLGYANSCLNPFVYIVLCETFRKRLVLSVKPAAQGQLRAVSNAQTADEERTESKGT
Assay: Aequorin bioluminescence functional assay in 293-AEQ17 cells transfected with human MCH receptor
Assay type: cell-based
Design: expressed in transfected cells; host or cells: 293-AEQ17 (aequorin-expressing HEK-293 reporter line), transient lipofectamine transfection, pcDNA-3 vector; concentration or dose not given beside the values
Settings: Table 4; position 6 modification
Where a SMILES comes first, the peptide text is derived from it. Bridges are numbered along the chain shown (N, C = ends).
Don't forget the unit after the value.

Worked examples follow.
# query: Activity Activation % of entry CSCC[C@@H]1NC(=O)[C@@H](NC(=O)[C@H](C)NC(C)=O)CSSC[C@@H](C(N)=O)NC(=O)[C@@H]2CCCN2C(=O)[C@H](CCCNC(=N)N)NC(=O)[C@H](Cc2ccc(O)cc2)NC(=O)[C@H](C(C)C)NC(=O)[C@H](CCCNC(=N)N)NC(=O)CNC(=O)[C@H](CC(C)C)NC1=O [compound 31] (Ac-ACMLGRVYRPC-NH2; disulfide 2-11 (inferred))
135%

Would you kindly share the measured Activity Activation % for CSCC[C@@H]1NC(=O)[C@@H](NC(=O)[C@@H]2CCCN2C(C)=O)CSSC[C@@H](C(N)=O)NC(=O)[C@@H]2CCCN2C(=O)[C@H](CCCNC(=N)N)NC(=O)[C@H](Cc2ccc(O)cc2)NC(=O)[C@H](C(C)C)NC(=O)[C@H](CCCNC(=N)N)NC(=O)CNC(=O)[C@H](CC(C)C)NC1=O [compound 33] ?
133%

Next:
Endpoint output: Activity Activation % of CSCC[C@@H]1NC(=O)[C@@H](N)CSSC[C@@H](C(N)=O)NC(=O)[C@@H]2CCCN2C(=O)[C@H](CCCNC(=N)N)NC(=O)[C@H](Cc2ccc(O)cc2)NC(=O)[C@H](C(C)C)NC(=O)[C@H](CCCNC(=N)N)NC(=O)CNC(=O)[C@H](CC(C)C)NC1=O [compound 37] . Value?
120%

meta.source: patent US7220720B2
